B1: DVL3 (parent)
chain: SDVVDWLYHNVEGFTDRREARKYA

- Variants of: B1
- assayName: protein stability index of a GFP-peptide fusion (GPS, HEK-293T) (PSI 1-6); higher = more stable;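 note: lentivirally expressed fusions sorted by FACS into six bins by GFP to DsRed ratio, PSI derived from sequencing read proportions per bin multiplied by bin number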
- assayContext: c terminus: a fixed tail appended
Assign protein stability index to each entry below.
Format: numeric value only, no unit, no commentary.

# input variant: D16F ; wanted: its protein stability index
# output 2.94

# input I am curious: what protein stability index value has been reported for G13M ?
# output 2.71

# input For the variant shown here, D5Q , give the reported protein stability index.
# output 3.23

# input Need protein stability index, item T15I
# output 2.83

# input Dear colleague, I am looking for the recorded protein stability index of the following variant: W6A
# output 4.58

# input Sample D5N — what was its protein stability index?
# output 2.07

# input Requested field: protein stability index. Item: V11G
# output 4.04

# input Tell me the measured protein stability index of H9C , please.
# output 2.13

# input # lookup: protein stability index of R21M
# output 2.35
